For each record, write down the corresponding inhibition.
MEASUREMENT_TARGET: UniProt:Q99572
Sequence (Q99572 whole entry): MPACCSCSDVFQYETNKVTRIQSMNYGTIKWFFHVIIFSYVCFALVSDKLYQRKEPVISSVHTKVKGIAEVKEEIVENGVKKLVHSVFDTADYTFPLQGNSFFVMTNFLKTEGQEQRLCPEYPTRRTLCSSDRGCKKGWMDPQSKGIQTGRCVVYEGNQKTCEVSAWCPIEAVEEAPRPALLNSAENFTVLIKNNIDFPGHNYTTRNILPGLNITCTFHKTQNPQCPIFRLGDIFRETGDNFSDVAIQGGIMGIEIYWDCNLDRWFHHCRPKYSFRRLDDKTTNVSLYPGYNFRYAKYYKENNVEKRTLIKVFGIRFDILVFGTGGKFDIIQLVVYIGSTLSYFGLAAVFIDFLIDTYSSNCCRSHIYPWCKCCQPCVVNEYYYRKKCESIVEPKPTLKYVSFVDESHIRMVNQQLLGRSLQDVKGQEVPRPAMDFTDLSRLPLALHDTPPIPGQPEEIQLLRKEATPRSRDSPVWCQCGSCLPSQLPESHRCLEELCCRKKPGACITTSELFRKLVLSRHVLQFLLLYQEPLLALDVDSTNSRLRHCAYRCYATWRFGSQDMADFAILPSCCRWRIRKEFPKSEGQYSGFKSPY
ASSAY_DETAILS: Antagonist activity at human P2X7 receptor expressed in HEK293 cells assessed as inhibition of BzATP-induced EtBr uptake at 1 uM after 2 hrs by fluorescence assay relative to control
Format: cell-based

Worked cases, inhibition given:
Asked: Value lookup for inhibition; key = `COC(=O)c1cc2c(NC(=O)C34CC5CC(CC(C5)C3)C4)cccc2n(Cc2ccc([N+](=O)[O-])cc2)c1=O`
Given back: 61%

Asked: What measured inhibition goes with `CCc1ccc(Cn2c(=O)c(C(=O)OC)cc3c(NC(=O)C45CC6CC(CC(C6)C4)C5)cccc32)cc1` ?
Given back: 28%

Asked: So what does the record say about inhibition for `COC(=O)c1cc2c(NC(=O)CC34CC5CC(CC(C5)C3)C4)cccc2nc1Cl` ?
Given back: 27%

Asked: For the compound shown here, `O=C(CC12CC3CC(CC(C3)C1)C2)Nc1cccc2nc(-c3ccc(O)cc3)ccc12` , give the reported inhibition.
Given back: 79%

Asked: Request the reported inhibition associated with `O=C(CC12CC3CC(CC(C3)C1)C2)Nc1cccc2nc(-c3ccc([N+](=O)[O-])cc3)ccc12`
Given back: 79%

Asked: If you can, please state the reported inhibition value of `O=C(CC12CC3CC(CC(C3)C1)C2)Nc1cccc2nc(-c3ccc(C(=O)O)cc3)ccc12` .
Given back: 87%

Return reported inhibition values for all items listed beneath this line.
1. O=C(CC12CC3CC(CC(C3)C1)C2)Nc1cccc2nc(-c3ccc(Cl)cc3)ccc12
2. COC(=O)c1cc2c(NC(=O)C34CC5CC(CC(C5)C3)C4)cccc2n(Cc2ccc(Cl)cc2)c1=O

Given back:
1: 89%; 2: 78%
